# Test system: Streptococcus pneumoniae
# method: Antibacterial activity against Streptococcus pneumoniae ATCC 49619 after 20 hrs by CLSI based-broth microdilution method
# Assay type: functional
# conditions-used: ATCC 49619, 20 h
quantity-measured: MIC (µg/mL)
Respond numerically; units are µg/mL and should not be typed.

Known MIC results, listed for orientation:
Cc1ccc(C(=O)O)cc1NCc1ccc(Sc2ccc(Cl)c(Cl)c2)c([N+](=O)[O-])c1 : 16
O=C(Nc1cccc(Sc2ccc(C(=O)c3ccccc3C(=O)O)cc2[N+](=O)[O-])c1)c1ccccc1 : 32

In: // fetch Streptococcus pneumoniae MIC for O=C(O)c1ccc(N2CCOCC2)c(NCc2ccc(Sc3ccc(Cl)c(Cl)c3)c([N+](=O)[O-])c2)c1
Out: 16

In: // fetch Streptococcus pneumoniae MIC for Nc1ccccc1Sc1ccc(C(=O)Nc2ccc(C(=O)O)cc2)cc1[N+](=O)[O-]
Out: 256

In: // fetch Streptococcus pneumoniae MIC for O=C(O)c1ccccc1C(=O)c1ccc(Nc2ccccc2)c([N+](=O)[O-])c1
Out: 256

In: // fetch Streptococcus pneumoniae MIC for O=C(O)c1ccccc1C(=O)c1ccc(Sc2ccc(Cl)c(Cl)c2)cc1
Out: 16

In: // fetch Streptococcus pneumoniae MIC for CN[C@H](CC(C)C)C(=O)N[C@H]1C(=O)N[C@@H](CC(N)=O)C(=O)N[C@H]2C(=O)N[C@H]3C(=O)N[C@H](C(=O)N[C@H](C(=O)O)c4cc(O)cc(O)c4-c4cc3ccc4O)[C@H](O)c3ccc(c(Cl)c3)Oc3cc2cc(c3O[C@@H]2O[C@H](CO)[C@@H](O)[C@H](O)[C@H]2O[C@H]2C[C@](C)(N)[C@H](O)[C@H](C)O2)Oc2ccc(cc2Cl)[C@H]1O
Out: 1
